Molecular target: T1, IL10Rα/IL2Rγ receptor (human) (UniProt Q13651)
T1 sequence (looked up) 1: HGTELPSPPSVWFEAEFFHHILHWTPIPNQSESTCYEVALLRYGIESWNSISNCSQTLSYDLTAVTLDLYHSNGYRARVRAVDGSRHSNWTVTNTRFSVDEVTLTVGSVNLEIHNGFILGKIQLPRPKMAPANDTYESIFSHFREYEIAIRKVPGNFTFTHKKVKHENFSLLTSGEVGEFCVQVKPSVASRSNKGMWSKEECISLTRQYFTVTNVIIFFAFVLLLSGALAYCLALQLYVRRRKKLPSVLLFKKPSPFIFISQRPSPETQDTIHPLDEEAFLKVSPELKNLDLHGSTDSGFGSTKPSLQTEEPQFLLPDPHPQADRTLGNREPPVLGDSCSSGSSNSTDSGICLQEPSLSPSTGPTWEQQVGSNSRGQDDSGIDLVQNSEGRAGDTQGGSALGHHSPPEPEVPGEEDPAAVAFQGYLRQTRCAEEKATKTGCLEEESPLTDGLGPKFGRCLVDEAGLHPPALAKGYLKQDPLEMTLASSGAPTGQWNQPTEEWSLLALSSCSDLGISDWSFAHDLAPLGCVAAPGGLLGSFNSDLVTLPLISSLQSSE
T1 sequence (looked up) 2: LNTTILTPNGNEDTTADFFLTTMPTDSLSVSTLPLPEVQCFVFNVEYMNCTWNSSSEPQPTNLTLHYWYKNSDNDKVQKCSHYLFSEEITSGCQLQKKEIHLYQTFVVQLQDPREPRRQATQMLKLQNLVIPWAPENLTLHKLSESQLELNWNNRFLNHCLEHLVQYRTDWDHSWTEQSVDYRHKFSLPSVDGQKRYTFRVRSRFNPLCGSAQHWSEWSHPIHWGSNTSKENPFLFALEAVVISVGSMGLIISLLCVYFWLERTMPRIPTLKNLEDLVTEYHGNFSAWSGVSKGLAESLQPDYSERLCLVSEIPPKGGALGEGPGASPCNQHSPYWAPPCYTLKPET
Assay: cell-based or functional assay
Property Name: Granzyme A secretion, CD8 T cells, at 1 µM (pg/mL)

Binder	Units Text	Observed Value
hIL10Ra_VHH14 - hIL2Rg_VHH19, linker GGSGGS, tag his (bispecific antibody, not shown: small tags and cut ends) QVQLQESGGGSVQAGGSLRLSCGASGYTYSSYCMGWFRQVPGKEREGVAVIDSDGSTSYADSVKGRFTISKDNGKNTLYLQMNSLKPEDTAMYYCAADLGHYRPPCGVLYLGMDYWGKGTQVTVSSGGSGGSQVQLQESGGGSVQAGGSLRLSCTASGFTFDDREMNWYRQAPGNECELVSTISSDGSTYYADSVKGRFTISQDNAKNTVYLQMDSVKPEDTAVYYCAADFMIAIQAPGAGCWGQGTQVTVSS	pg/mL	28700
